Reference source: patent US20250195513A1

molecular target: IRAK4 (Homo sapiens); construct: endogenous in cells; host or cells: Karpas299; test: IRAK4 Degradation Assay with Human Serum (Karpas299, HTRF/TR-FRET); format: cell-based; settings: Karpas-299 in human serum, 24 hrs treatment; read-out: IRAK4 degradtion with human serum assay Dmax (%)
Sequence (Q9NWZ3 whole entry): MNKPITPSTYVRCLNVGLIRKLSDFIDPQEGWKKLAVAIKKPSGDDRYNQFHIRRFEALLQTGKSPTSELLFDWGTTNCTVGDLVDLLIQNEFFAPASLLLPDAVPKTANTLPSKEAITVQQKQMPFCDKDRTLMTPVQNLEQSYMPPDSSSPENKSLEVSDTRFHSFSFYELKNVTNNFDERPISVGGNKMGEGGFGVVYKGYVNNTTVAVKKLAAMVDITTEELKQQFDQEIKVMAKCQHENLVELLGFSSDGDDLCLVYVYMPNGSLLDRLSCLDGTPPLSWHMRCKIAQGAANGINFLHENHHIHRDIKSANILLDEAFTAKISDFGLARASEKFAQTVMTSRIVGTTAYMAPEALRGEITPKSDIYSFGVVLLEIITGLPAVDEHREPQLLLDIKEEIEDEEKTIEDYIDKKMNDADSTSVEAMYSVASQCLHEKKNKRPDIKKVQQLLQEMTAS
METRIC: Dmax (%)

| COMPOUND | Dmax, % |
| --- | --- |
| CC(C)(O)c1cc2nn([C@H]3CC[C@H](N4CCN(C[C@@H]5CCN(c6cc(F)c([C@H]7CCC(=O)NC7=O)c(F)c6)C5)CC4)CC3)cc2cc1NC(=O)c1ccc2cc(C#N)cnn12 [Example 392] | 98 |
| COC[C@H]1CN([C@H]2CC[C@H](n3cc4cc(NC(=O)c5ccc6cc(C#N)cnn56)c(C(C)(C)O)cc4n3)CC2)CCN1C(=O)C1CN(c2cc(F)c(N3CCC(=O)NC3=O)c(F)c2)C1 [Example 315] | 99 |
| CC(C)(O)c1cc2nn(C34CC(N5CCN(CC6CN(c7cc(F)c([C@H]8CCC(=O)NC8=O)c(F)c7)C6)CC5)(C3)C4)cc2cc1NC(=O)c1ccc2cc(C#N)cnn12 [Example 332] | 101 |
| CC(C)(O)c1cc2nn([C@H]3CC[C@H](N4CCN(CCCc5cc(F)c([C@H]6CCC(=O)NC6=O)c(F)c5)CC4)CC3)cc2cc1NC(=O)c1ccc2cc(C#N)cnn12 [Example 357] | 97 |
| C[C@@H]1CN([C@H]2C[C@@H](c3cc(F)c([C@H]4CCC(=O)NC4=O)c(F)c3)C2)CCN1[C@H]1CC[C@H](n2cc3cc(NC(=O)c4ccc5cc(C#N)cnn45)c(C(C)(C)O)cc3n2)CC1 [Example 365] | 93 |
